Hello, the source for this data is patent EP0559700B1, in case you need it.

- protocol-description: Lipophilicity: partition coefficient (octanol-buffer) and capacity factor by RP-HPLC
- Type: physicochemical
- study-conditions: pH 5.0
In this section, each of the compounds is paired with its reported logD.

CC[C@H](C(=O)OCCCCCCOC(=O)[C@@H](CC)[C@H](COC(=O)C1CC1)Cc1cncn1C)[C@H](COC(=O)C1CC1)Cc1cncn1C [Example 20] :: 0.88

Enquiry: Report logD, nothing else, for this compound: CC[C@H](C(=O)OCCCCCOC(=O)[C@@H](CC)[C@H](COC(=O)C1CC1)Cc1cncn1C)[C@H](COC(=O)C1CC1)Cc1cncn1C [Example 21]
Return: 0.401

* * *

- protocol-description: pKa-value determination by titration in a water-ethanol mixture (50%-50%)
- Type: physicochemical
- study-conditions: water-ethanol 50:50; titration in water-ethanol mixture (50%-50%)
pKa overview
Give the figure by itself; no unit, no explanation.

Please review the entries below; each comes with its answer.
CC[C@H](C(=O)OCCCCOC(=O)[C@@H](CC)[C@H](CO)Cc1cncn1C)[C@H](CO)Cc1cncn1C [Example 7] :: 6.35
CC[C@H](C(=O)OCc1ccc(COC(=O)[C@@H](CC)[C@H](COC(C)=O)Cc2cncn2C)cc1)[C@H](COC(C)=O)Cc1cncn1C [Example 9] :: 6.03
CC[C@H](C(=O)OCCCCCCCOC(=O)[C@@H](CC)[C@H](CO)Cc1cncn1C)[C@H](CO)Cc1cncn1C [Example 4] :: 6.3
CC[C@H](C(=O)OCc1ccc(COC(=O)[C@@H](CC)[C@H](COC(=O)C2CC2)Cc2cncn2C)cc1)[C@H](COC(=O)C1CC1)Cc1cncn1C [Example 13] :: 6
CC[C@H](C(=O)OCc1ccccc1)[C@H](COC(=O)c1ccc(C(=O)OC[C@H](Cc2cncn2C)[C@H](CC)C(=O)OCc2ccccc2)cc1)Cc1cncn1C [Example 19] :: 6

Would you kindly look at the next entry?
Enquiry: Tell me its pKa given CCC(=O)OC[C@H](Cc1cncn1C)[C@H](CC)C(=O)OCc1ccc(COC(=O)[C@@H](CC)[C@H](COC(=O)CC)Cc2cncn2C)cc1 [Example 10] as the entry.
Return: 5.8

* * *

Form field: half-life (one value per entry).
- protocol-description: Stability of the compounds: buffer hydrolysis (half-times, shelf-life)
- Assay type: physicochemical
- study-conditions: buffer, pH 4.2
Respond with the bare value in days.

Consider the worked cases shown below.
CC[C@H](C(=O)OCc1ccccc1)[C@H](COC(=O)CCCCC(=O)OC[C@H](Cc1cncn1C)[C@H](CC)C(=O)OCc1ccccc1)Cc1cncn1C [Example 15, O,O'-Adipoyl (dibenzyl) bispilocarpate] :: 131
CC[C@H](C(=O)OCc1ccc(COC(=O)[C@@H](CC)[C@H](COC(C)=O)Cc2cncn2C)cc1)[C@H](COC(C)=O)Cc1cncn1C :: 165
CC[C@H](C(=O)OCc1ccccc1)[C@H](COC(=O)CCC(=O)OC[C@H](Cc1cncn1C)[C@H](CC)C(=O)OCc1ccccc1)Cc1cncn1C [Example 17, O,O'-Succinyl (dibenzyl) bispilocarpate] :: 198

Enquiry: Please report the measured half-life for CC[C@H](C(=O)OCc1ccccc1)[C@H](COC(=O)/C=C/C(=O)OC[C@H](Cc1cncn1C)[C@H](CC)C(=O)OCc1ccccc1)Cc1cncn1C [Example 18, O,O'-Fumaroyl (dibenzyl) bispilocarpate]
Return: 34.8
